target_system: T1, biotinylated native human ApoC3 (human, UniProt P02656 21-99, biotinylated (site not stated))
T1 construct: also called biotinylated human ApoC3
T1 sequence (P02656 21-99): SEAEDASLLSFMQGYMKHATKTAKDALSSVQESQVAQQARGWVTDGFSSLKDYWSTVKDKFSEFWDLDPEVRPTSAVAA
test_method_notes: SPR, IgG1 over biotinylated ApoC3 on SA chip, pH 5.5
Assignment: determine reported Kd for the given binders.
Numbers only; they are read as nM.

Q: Report Kd for mAb4 (antibody, IgG1, V domains shown, Produced as full length IgG1 (kappa) in ExpiCHO-S cells; also called humanized anti-ApoC3 antibody mAb4) VH: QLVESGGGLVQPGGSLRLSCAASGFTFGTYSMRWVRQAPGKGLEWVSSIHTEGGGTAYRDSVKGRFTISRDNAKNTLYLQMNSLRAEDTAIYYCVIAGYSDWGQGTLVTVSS VL: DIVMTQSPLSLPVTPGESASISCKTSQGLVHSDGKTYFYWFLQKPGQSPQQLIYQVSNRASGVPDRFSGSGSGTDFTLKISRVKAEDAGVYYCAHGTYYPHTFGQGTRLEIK please.
Result: 0.37

Q: Consider the binder mAb9 (antibody, IgG1, V domains shown, Produced as full length IgG1 (kappa) in ExpiCHO-S cells; also called humanized anti-ApoC3 antibody mAb9) VH: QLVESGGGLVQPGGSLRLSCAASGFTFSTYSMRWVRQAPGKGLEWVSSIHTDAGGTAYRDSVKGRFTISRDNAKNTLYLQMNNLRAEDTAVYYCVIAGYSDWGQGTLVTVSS VL: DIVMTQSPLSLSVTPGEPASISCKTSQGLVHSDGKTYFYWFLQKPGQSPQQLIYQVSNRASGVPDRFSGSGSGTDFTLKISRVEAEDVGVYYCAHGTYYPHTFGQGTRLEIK and give its measured Kd.
Result: 0.76
